System: tet-on competent MLL/AF9+Nras AML
Assay: Pooled negative selection RNAi screening (deep sequencing)
Type: cell-based, mouse
Details: deep sequencing reads, On Dox compared to T0
measurement.name: Fold depletion in AML (Fold)
Kindly provide the numeric value in Fold only, without the unit symbol.

Lookup: Suppose we examine the molecule Myb.670: shRNA, SEQ ID NO: 145 (also SEQ ID NO: 54) (nucleic acid) TGCTGTTGACAGTGAGCGACACAACCATTTGAATCCAGAATAGTGAAGCCACAGATGTATTCTGGATTCAAATGGTTGTGCTGCCTACTGCCTCGGA ; what Fold depletion in AML value has been reported?
Found: 26.46

Lookup: Suppose we examine the molecule Bcl2.2169: shRNA, SEQ ID NO: 96 (also SEQ ID NO: 42) (nucleic acid) TGCTGTTGACAGTGAGCGACAGTAGAAATTATATGCATTATAGTGAAGCCACAGATGTATAATGCATATAATTTCTACTGCTGCCTACTGCCTCGGA ; what Fold depletion in AML value has been reported?
Found: 12.61

Lookup: Suppose we examine the molecule Slc22a4.2223: shRNA, SEQ ID NO: 181 (nucleic acid) TGCTGTTGACAGTGAGCGCAAACGTATAAATGCTATCCAATAGTGAAGCCACAGATGTATTGGATAGCATTTATACGTTTATGCCTACTGCCTCGGA ; what Fold depletion in AML value has been reported?
Found: 41.21

Lookup: Suppose we examine the molecule Ccr1.733: shRNA, SEQ ID NO: 101 (nucleic acid) TGCTGTTGACAGTGAGCGCCTGGATTGACTACAAGTTGAATAGTGAAGCCACAGATGTATTCAACTTGTAGTCAATCCAGATGCCTACTGCCTCGGA ; what Fold depletion in AML value has been reported?
Found: 472.15
